Numbers sourced from PubChem BioAssay (NCATS).

Listing of entries alongside the reported activity change, negative = inhibition.
- EXPERIMENT: NFAT Signaling Pathway (AID 444);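 note: carbachol stimulus at about its EC50 of 1 µM final; % is set by controls: 0 for no effect and ±100 for the full control effect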
- CONDITION PARAMETERS: Jurkat NFAT-bla M1, carbachol, beta-lactamase ratio, 5 h; at 17.2 µM (top of the series) unless noted
Inconclusive results are not listed.
Report only the number, with the unit % understood.

QUERY: Read off the recorded activity change, negative = inhibition for Cc1c(/C(O)=C2\C(=O)C(=O)N(CCN(C)C)C2c2cccnc2)cnn1-c1ccccc1 (stereo unspecified)
RESULT: 9.15

QUERY: Read off the recorded activity change, negative = inhibition for COc1cccc(C2/C(=C(/O)c3cnn(-c4ccccc4)c3C)C(=O)C(=O)N2CCN(C)C)c1 (stereo unspecified)
RESULT: -7.78

QUERY: Read off the recorded activity change, negative = inhibition for "COC(=O)CSc1nc(N)c2c3c(sc2n1)CCCC3"
RESULT: -7.55

QUERY: Read off the recorded activity change, negative = inhibition for "CCCCOC(=O)Nc1ccc(S(=O)(=O)Nc2nc(C)cc(C)n2)cc1"
RESULT: -8.58

QUERY: Read off the recorded activity change, negative = inhibition for "O=C(NCCCn1ccnc1)c1cccnc1"
RESULT: -7.91

QUERY: Read off the recorded activity change, negative = inhibition for "CC(C)(C)NC(=O)/C=N/O"
RESULT: 23.2

* * *

- EXPERIMENT: NFAT Signaling Pathway (AID 444);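 note: carbachol stimulus at about its EC50 of 1 µM final; % is set by controls: 0 for no effect and ±100 for the full control effect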
- CONDITION PARAMETERS: Jurkat NFAT-bla M1, carbachol, beta-lactamase ratio, 5 h; at 17.2 µM (top of the series) unless noted
- Procedure: NCGC Assay Overview: The nuclear factor of activated T cells (NFAT) family of transcription factors has been found primarily in most immune system cells and some other non-immune cells. NFAT plays the immunomodulatory role, primarily in T-cell activation and differentiation. […] NCGC Assay Protocol Summary: The cells were prepared in RPMI 1640 medium containing 0.1% dialyzed FBS and 25 mM HEPES at 1.6 x 10^6cell/ml. […] The %Activity was determined from the ratio of 460nm/530nm. […]
Records with an inconclusive call do not appear.
READOUT TYPE: activity change, negative = inhibition (%)
Report only the number, with the unit % understood.

QUERY: Read off the recorded activity change, negative = inhibition for "Cc1ccc(N(Cc2cc3ccccc3[nH]c2=O)C(=O)c2ccco2)c(C)c1"
RESULT: 25.5

Continuing:
QUERY: Read off the recorded activity change, negative = inhibition for "Cc1c(Cl)c(C(F)(F)F)nn1CC(=O)N1CCSCC1"
RESULT: 0.195

QUERY: Read off the recorded activity change, negative = inhibition for "Cc1cc(C)cc(-n2c3nc4ccccc4nc3c3c(=O)n(Cc4ccco4)cnc32)c1"
RESULT: -18.2

QUERY: Read off the recorded activity change, negative = inhibition for CCCCC(CCC(=O)Nc1ccc(C(=O)OC)cc1)C(=O)O (configuration not stated)
RESULT: 7.48

QUERY: Read off the recorded activity change, negative = inhibition for "Brc1ccc(-c2cnnc(N3CCCC3)n2)cc1"
RESULT: 0.485

QUERY: Read off the recorded activity change, negative = inhibition for COc1ccc(C2N3CC4(C)CN2CC(C)(C3)C4O)cc1OC (configuration not stated)
RESULT: -5.44

QUERY: Read off the recorded activity change, negative = inhibition for "Cn1c(=O)oc2cc(C(=O)c3ccccc3)ccc21"
RESULT: -9.48

QUERY: Read off the recorded activity change, negative = inhibition for COc1ccc(OC)c(C2C(C#N)=C(N)Oc3cc(C)n(Cc4ccccn4)c(=O)c32)c1 (configuration not stated)
RESULT: -20.4

QUERY: Read off the recorded activity change, negative = inhibition for "O=C(O)c1ccc(C2CCCCC2)cn1"
RESULT: -13.3

QUERY: Read off the recorded activity change, negative = inhibition for "CSc1nc2sc3c(c2c2nnnn12)CC(C)(C)OC3"
RESULT: -19.6

QUERY: Read off the recorded activity change, negative = inhibition for COC(=O)C1C(=O)NCC1c1ccccc1 (configuration not stated)
RESULT: -1.78

QUERY: Read off the recorded activity change, negative = inhibition for "CCCSc1nc(C)c(CC(=O)OCC)c(=O)[nH]1"
RESULT: -4.22
